Measured abundance fitness, listed per entry for reference.
B1: Zinc finger homeobox protein 3, residues 2643 to 2698; numbered along this chain, Q15911 (parent)
chain: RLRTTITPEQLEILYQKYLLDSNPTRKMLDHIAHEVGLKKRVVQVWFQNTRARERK

Variants of: B1
Assay: abundance fitness (aPCA) (normalised: wild type 0, dead -1); higher = more abundant; growth selection in yeast, the domain comes from the species named
Conditions: Homo sapiens

Residue codes | abundance fitness
RLRTTITPEQLEILYQKYLLDSNPTRKMLDHIAHEVNLKKRVVQVWFQNTRARERK [G37N] | -0.306
RLRTTKTPEQLEILYQKYLLDSNPTRKMLDHIAHEVGLKKRVVQVWFQNTRARERK [I6K] | -0.392
RLRTTITPEQLEILYQKYLLLSNPTRKMLDHIAHEVGLKKRVVQVWFQNTRARERK [D21L] | -0.553
RLRTTITPELLEILYQKYLLDSNPTRKMLDHIAHEVGLKKRVVQVWFQNTRARERK [Q10L] | -0.646
RLRTTITPEQLEILYQKYLLDSNPTRKMLDHIAHEVGLKKRVVQVWFQFTRARERK [N49F] | -0.531
RLRTTITPEQLEILYQKYLLDSPPTRKMLDHIAHEVGLKKRVVQVWFQNTRARERK [N23P] | -0.965
RLRTTITPEQLEILYQKYLLDSNPTLKMLDHIAHEVGLKKRVVQVWFQNTRARERK [R26L] | 0.266
RLRTTITPEQLEILYQEYLLDSNPTRKMLDHIAHEVGLKKRVVQVWFQNTRARERK [K17E] | 0.007
RLRTTITPEQLEILYQKYLLDSNPTRKMLDHIAHEVGLKKRVVQVWFQNTRARERG [K56G] | 0.001
RLRTTYTPEQLEILYQKYLLDSNPTRKMLDHIAHEVGLKKRVVQVWFQNTRARERK [I6Y] | 0.035
RLRTTITPEQLEILYQKYLLDSNPTRKMLDHIAQEVGLKKRVVQVWFQNTRARERK [H34Q] | -0.017
RLRTTITPEQLDILYQKYLLDSNPTRKMLDHIAHEVGLKKRVVQVWFQNTRARERK [E12D] | -0.109
RLRTTITPEQLEILYQKYLLDSNKTRKMLDHIAHEVGLKKRVVQVWFQNTRARERK [P24K] | -0.935
RLRTTITPSQLEILYQKYLLDSNPTRKMLDHIAHEVGLKKRVVQVWFQNTRARERK [E9S] | -0.267
RLRTTITPEQLEILYQKYLLDSNPTRKMLDHIAHEVGLKKQVVQVWFQNTRARERK [R41Q] | 0.287
RLRTTITPEQLEILYQKYLLDANPTRKMLDHIAHEVGLKKRVVQVWFQNTRARERK [S22A] | -0.003
RLRTTITPEQLEQLYQKYLLDSNPTRKMLDHIAHEVGLKKRVVQVWFQNTRARERK [I13Q] | -0.095
RLRTTVTPEQLEILYQKYLLDSNPTRKMLDHIAHEVGLKKRVVQVWFQNTRARERK [I6V] | -0.022
MLRTTITPEQLEILYQKYLLDSNPTRKMLDHIAHEVGLKKRVVQVWFQNTRARERK [R1M] | 0.23
RLRTTITPEQLEILYQKYLLDSNPTRKMLDHIAHEVGLPKRVVQVWFQNTRARERK [K39P] | 0.224
RLRTTITPEQLEILYQKYLLDSNQTRKMLDHIAHEVGLKKRVVQVWFQNTRARERK [P24Q] | -0.354
RLRTTITPEQLEILYQKYLLDSFPTRKMLDHIAHEVGLKKRVVQVWFQNTRARERK [N23F] | 0.149
VLRTTITPEQLEILYQKYLLDSNPTRKMLDHIAHEVGLKKRVVQVWFQNTRARERK [R1V] | 0.297
RLRTTITPEQLEILYQKYLLDSNPTRKMLDRIAHEVGLKKRVVQVWFQNTRARERK [H31R] | -0.237
RLRTTITPEQLEILYQKYLLDSNPTRKMLDHIAHEVGLKKRVVTVWFQNTRARERK [Q44T] | -0.209
RLRTTITPEQLEILYQKYLLDSNPTRKMLDHIAHEVGLKKEVVQVWFQNTRARERK [R41E] | 0.475
RLRTPITPEQLEILYQKYLLDSNPTRKMLDHIAHEVGLKKRVVQVWFQNTRARERK [T5P] | 0.176
RLRTTITPEQLEILYQKYLLDSNPTRKMLDHIAHEVGLKIRVVQVWFQNTRARERK [K40I] | 0.093
RLRTTITDEQLEILYQKYLLDSNPTRKMLDHIAHEVGLKKRVVQVWFQNTRARERK [P8D] | -0.084
RLRTTITPEQLEILYQKYLLDSNPTRKMLVHIAHEVGLKKRVVQVWFQNTRARERK [D30V] | -0.223
RLRTTITPEQLEHLYQKYLLDSNPTRKMLDHIAHEVGLKKRVVQVWFQNTRARERK [I13H] | 0.067
RLRTTITPEQLEILYQKYLLDSNPTRKMLDHIAHEVGLKKFVVQVWFQNTRARERK [R41F] | -0.203
RLRTTITPEQLEILYQKYLLDSNPTRKMLDDIAHEVGLKKRVVQVWFQNTRARERK [H31D] | 0.348
RLRTTITPEQLEILYQKYLLDSNPTRKMLDHIAHEVGLKKRVVQKWFQNTRARERK [V45K] | -0.399
RLRTTITPEQLEILYQKYLLDSNPTRKMLDHISHEVGLKKRVVQVWFQNTRARERK [A33S] | -0.06
RLRTTITPEQLEILYQMYLLDSNPTRKMLDHIAHEVGLKKRVVQVWFQNTRARERK [K17M] | 0.114
RLRITITPEQLEILYQKYLLDSNPTRKMLDHIAHEVGLKKRVVQVWFQNTRARERK [T4I] | 0.048
RLRTTITPEQLEILYQKYLLDSNPTRKMLDHIAHEVMLKKRVVQVWFQNTRARERK [G37M] | -0.53
RLRTTITPEQLEILYQKYLLDSNPPRKMLDHIAHEVGLKKRVVQVWFQNTRARERK [T25P] | -0.145
RLRTTITPEQLEILYQKYLLDSNPTRKMLDHIAHEVGLKKRVVQVWFQNTRAREIK [R55I] | 0.142
RLRTTITPEQLEILYQKYLLDSNPTRKMLWHIAHEVGLKKRVVQVWFQNTRARERK [D30W] | -0.442
RLRYTITPEQLEILYQKYLLDSNPTRKMLDHIAHEVGLKKRVVQVWFQNTRARERK [T4Y] | -0.254
RLRTTITPEQLEILYQKYLLDSNPTRNMLDHIAHEVGLKKRVVQVWFQNTRARERK [K27N] | -0.246
RLRTTITPEQLEILYQKYLLDSNPTRKMLDHIAHEVGLKKVVVQVWFQNTRARERK [R41V] | 0.041
RLRTTITPEQLEILYQKYLLDSNPTRKMLDHIAHEVGLKKRVVQVWFQHTRARERK [N49H] | -0.412
